Attribution: patent US20180258175A1

- Tested on: T1, human CD115 extracellular domain (Sino Biological 10161-H08H) (human, UniProt P07333 20-517)
- T1 construct: extracellular domain; bought recombinant protein; also called huCD115; hu-CD115
- Test method notes: competition ELISA, competitor TMR 24A;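 note: clonal anti-huCD115 hybridoma supernatant antibodies bound with a competitor mouse antibody present, and failure to bind puts a clone in that competitor's epitope bin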;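 note: low signal means same epitope bin as the mouse competitor antibody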
Measured property: signal vs NO COMP=100
The reply must contain the numeric value and, after it, the unit.

{"Binder": "CCK-421A (antibody, V domains shown, AlivaMab chimeric IgG, human kappa LC) VH: QVQLQESGPGLVKPSETLSLTCTVTGGSISSYYWSWIRQPAGKGLEWIGRIYTSGSTNYNPSLKSRVTMSVDTSKNHFSLKLSSVTAADTAVYYCAREILVVVAATRTGGVFDIWGQGTMVTVSS VL: DIQMTQSPSTLSASVGDRVTITCRASQSISSWLAWYQRKPGKAPKLLIYKASTLESGVPSRFSGSGSGTEFTLTISSLQPDDFATYYCQQFNSYWTFGQGTKVEIK", "signal vs NO COMP=100": "18%"}
{"Binder": "CCK-541A (antibody, V domains shown, AlivaMab chimeric IgG, human kappa LC) VH: QVQLQESGPGLVKPSETLSLTCTVSGASISTYFWSWLRQPPGKGLEWIGYIFYSGSINYNPSLKSRVTISVDTSKNQFSLELSSVTAADTAVYYCARDRTFYGMDVWGQGTTVTVSS VL: EIVLTQSPGTLSLPPGERATLSCRASQNVSSTYLAWYHQKPGQAPRLLIYGASSRATGIPDRFSGSGSGTDFTLTISRLEPEDFAVYYCQQYGSSPRTFGQGTKVEIK", "signal vs NO COMP=100": "109%"}

Let us examine a further case.
May I ask what signal vs NO COMP=100 has been recorded for 429 (Table 4, bin 1C block) (antibody, V domains shown, not tied) VH: QVQLEQSGAEVKRPGASVKVSCKASGYTFTGYYMHWVRQAPGQGLEWMGWINPNRGDTNYAQKFQGRVTMTRDTSISTAYMELSRLRSDDTAVYYCARDLEGGGPFDYWGQGTLVTVSS VL: DIVMTQTPLSLPVTPGEPASISCRSSQSLLDSDDGNTYLDWYLQKPGQSPQLLIYTLSYRASGVPDRFSGSGSGTDFTLKISRVEAEDVGVYYCMQRIEFPSTFGQGTRLEIK ?
75%
